Assay: xn = mol fraction of the nth substance listed
Conditions: 288.15 K, x1 = 0.85
ASSAY_METRIC: surface tension liquid-gas (mN/m)

                                   compound  units_label  measurement
0  CCCC(=O)OCCC(C)C [3-methylbutyl butanoate] + CCO         mN/m         25.4
1     CCCCCC(=O)OCC [ethyl hexanoate] + CCO         mN/m         26.1
2   CCOC(=O)c1ccccc1 [ethyl benzoate] + CCO         mN/m         33.6
3  CC(=O)OCCC(C)C [3-methylbutyl ethanoate] + CCO         mN/m         25.1
4  CCOC(=O)Cc1ccccc1 [ethyl phenylacetate] + CCO         mN/m         34.1
5   CCCCCCCC(=O)OCC [ethyl octanoate] + CCO         mN/m         26.9

====

Assay: xn = mol fraction of the nth substance listed
Conditions: 298.15 K, x1 = 0.9
ASSAY_METRIC: surface tension liquid-gas (mN/m)

                                   molecule                assay_metric  measurement
0  CCOC(=O)Cc1ccccc1 [ethyl phenylacetate] + CCO  surface tension liquid-gas         33.4
1   CCOC(=O)c1ccccc1 [ethyl benzoate] + CCO  surface tension liquid-gas         33.2
2  CCCC(=O)OCCC(C)C [3-methylbutyl butanoate] + CCO  surface tension liquid-gas         24.5
3  CC(=O)OCCC(C)C [3-methylbutyl ethanoate] + CCO  surface tension liquid-gas         24.1
4   CCCCCCCC(=O)OCC [ethyl octanoate] + CCO  surface tension liquid-gas         26.2
5     CCCCCC(=O)OCC [ethyl hexanoate] + CCO  surface tension liquid-gas         25.2

====

Assay: refractive index (Na D-line) (dimensionless); xn = mol fraction of the nth substance listed
Conditions: 288.15 K; 100.5 kPa; Liquid; Standard Abbe refractometry; x1 = 0.7
ASSAY_METRIC: refractive index

>>> df
                                   molecule      assay_metric  measurement
0   CCOC(=O)c1ccccc1 [ethyl benzoate] + CCO  refractive index      1.48715
1  CCCC(=O)OCCC(C)C [3-methylbutyl butanoate] + CCO  refractive index      1.40673
2     CCCCCC(=O)OCC [ethyl hexanoate] + CCO  refractive index      1.40343
3  CC(=O)OCCC(C)C [3-methylbutyl ethanoate] + CCO  refractive index      1.39717
4   CCCCCCCC(=O)OCC [ethyl octanoate] + CCO  refractive index       1.4135
5  CCOC(=O)Cc1ccccc1 [ethyl phenylacetate] + CCO  refractive index      1.48174

====

Experiment: xn = mol fraction of the nth substance listed
Details: 288.15 K, x1 = 0.9
ASSAY_METRIC: surface tension liquid-gas (mN/m)

                                   molecule                assay_metric  measurement
0  CCCC(=O)OCCC(C)C [3-methylbutyl butanoate] + CCO  surface tension liquid-gas         25.5
1  CCOC(=O)Cc1ccccc1 [ethyl phenylacetate] + CCO  surface tension liquid-gas         34.7
2     CCCCCC(=O)OCC [ethyl hexanoate] + CCO  surface tension liquid-gas         26.2
3  CC(=O)OCCC(C)C [3-methylbutyl ethanoate] + CCO  surface tension liquid-gas         25.2
4   CCCCCCCC(=O)OCC [ethyl octanoate] + CCO  surface tension liquid-gas           27
5   CCOC(=O)c1ccccc1 [ethyl benzoate] + CCO  surface tension liquid-gas         34.3

====

Experiment: refractive index (Na D-line) (dimensionless); xn = mol fraction of the nth substance listed
Settings: 318.15 K; 100.5 kPa; Liquid; Standard Abbe refractometry; x1 = 0.7
ASSAY_METRIC: refractive index

>>> df
                                   molecule  measurement
0  CCCC(=O)OCCC(C)C [3-methylbutyl butanoate] + CCO       1.3934
1   CCCCCCCC(=O)OCC [ethyl octanoate] + CCO      1.40054
2  CC(=O)OCCC(C)C [3-methylbutyl ethanoate] + CCO       1.3833
3   CCOC(=O)c1ccccc1 [ethyl benzoate] + CCO      1.47321
4  CCOC(=O)Cc1ccccc1 [ethyl phenylacetate] + CCO      1.46775
5     CCCCCC(=O)OCC [ethyl hexanoate] + CCO      1.38988

====

Assay: xn = mol fraction of the nth substance listed
Settings: 318.15 K, x1 = 0.55
ASSAY_METRIC: surface tension liquid-gas (mN/m)

                                   compound  measurement
0     CCCCCC(=O)OCC [ethyl hexanoate] + CCO         22.7
1  CCOC(=O)Cc1ccccc1 [ethyl phenylacetate] + CCO         27.2
2   CCCCCCCC(=O)OCC [ethyl octanoate] + CCO         23.7
3   CCOC(=O)c1ccccc1 [ethyl benzoate] + CCO         27.3
4  CC(=O)OCCC(C)C [3-methylbutyl ethanoate] + CCO         21.5
5  CCCC(=O)OCCC(C)C [3-methylbutyl butanoate] + CCO         22.2

====

Assay: xn = mol fraction of the nth substance listed
Details: 308.15 K, x1 = 0.9
ASSAY_METRIC: surface tension liquid-gas (mN/m)

                                   molecule  measurement
0  CCCC(=O)OCCC(C)C [3-methylbutyl butanoate] + CCO         23.8
1   CCCCCCCC(=O)OCC [ethyl octanoate] + CCO         25.3
2  CCOC(=O)Cc1ccccc1 [ethyl phenylacetate] + CCO         32.2
3   CCOC(=O)c1ccccc1 [ethyl benzoate] + CCO         31.9
4  CC(=O)OCCC(C)C [3-methylbutyl ethanoate] + CCO         23.2
5     CCCCCC(=O)OCC [ethyl hexanoate] + CCO         24.3

====

Assay: xn = mol fraction of the nth substance listed
Conditions: 318.15 K, x1 = 0.8
ASSAY_METRIC: surface tension liquid-gas (mN/m)

>>> print(df.to_string())
                                   compound  units_label  measurement
0     CCCCCC(=O)OCC [ethyl hexanoate] + CCO         mN/m         23.2
1  CC(=O)OCCC(C)C [3-methylbutyl ethanoate] + CCO         mN/m           22
2   CCCCCCCC(=O)OCC [ethyl octanoate] + CCO         mN/m         24.3
3  CCOC(=O)Cc1ccccc1 [ethyl phenylacetate] + CCO         mN/m         30.1
4   CCOC(=O)c1ccccc1 [ethyl benzoate] + CCO         mN/m         29.8
5  CCCC(=O)OCCC(C)C [3-methylbutyl butanoate] + CCO         mN/m         22.7

====

Assay: refractive index (Na D-line) (dimensionless); xn = mol fraction of the nth substance listed
Settings: 318.15 K; 100.5 kPa; Liquid; Standard Abbe refractometry; x1 = 0.1
ASSAY_METRIC: refractive index

                                   compound  measurement
0  CCOC(=O)Cc1ccccc1 [ethyl phenylacetate] + CCO      1.38323
1   CCCCCCCC(=O)OCC [ethyl octanoate] + CCO      1.36625
2  CC(=O)OCCC(C)C [3-methylbutyl ethanoate] + CCO       1.3593
3  CCCC(=O)OCCC(C)C [3-methylbutyl butanoate] + CCO      1.36327
4     CCCCCC(=O)OCC [ethyl hexanoate] + CCO      1.36185
5   CCOC(=O)c1ccccc1 [ethyl benzoate] + CCO      1.38279

====

Experiment: xn = mol fraction of the nth substance listed
Details: 288.15 K, x1 = 0.2
ASSAY_METRIC: surface tension liquid-gas (mN/m)

                                   molecule  measurement
0  CCCC(=O)OCCC(C)C [3-methylbutyl butanoate] + CCO           24
1     CCCCCC(=O)OCC [ethyl hexanoate] + CCO         24.3
2   CCCCCCCC(=O)OCC [ethyl octanoate] + CCO         24.8
3   CCOC(=O)c1ccccc1 [ethyl benzoate] + CCO         26.2
4  CC(=O)OCCC(C)C [3-methylbutyl ethanoate] + CCO         23.7
5  CCOC(=O)Cc1ccccc1 [ethyl phenylacetate] + CCO         25.9
